# tested.target: Cl− channel activated by Ca2+ (calcium ion-activated chloride channels) (Xenopus laevis, UniProt B5SVV6)
# Sequence (B5SVV6 entry or part of it): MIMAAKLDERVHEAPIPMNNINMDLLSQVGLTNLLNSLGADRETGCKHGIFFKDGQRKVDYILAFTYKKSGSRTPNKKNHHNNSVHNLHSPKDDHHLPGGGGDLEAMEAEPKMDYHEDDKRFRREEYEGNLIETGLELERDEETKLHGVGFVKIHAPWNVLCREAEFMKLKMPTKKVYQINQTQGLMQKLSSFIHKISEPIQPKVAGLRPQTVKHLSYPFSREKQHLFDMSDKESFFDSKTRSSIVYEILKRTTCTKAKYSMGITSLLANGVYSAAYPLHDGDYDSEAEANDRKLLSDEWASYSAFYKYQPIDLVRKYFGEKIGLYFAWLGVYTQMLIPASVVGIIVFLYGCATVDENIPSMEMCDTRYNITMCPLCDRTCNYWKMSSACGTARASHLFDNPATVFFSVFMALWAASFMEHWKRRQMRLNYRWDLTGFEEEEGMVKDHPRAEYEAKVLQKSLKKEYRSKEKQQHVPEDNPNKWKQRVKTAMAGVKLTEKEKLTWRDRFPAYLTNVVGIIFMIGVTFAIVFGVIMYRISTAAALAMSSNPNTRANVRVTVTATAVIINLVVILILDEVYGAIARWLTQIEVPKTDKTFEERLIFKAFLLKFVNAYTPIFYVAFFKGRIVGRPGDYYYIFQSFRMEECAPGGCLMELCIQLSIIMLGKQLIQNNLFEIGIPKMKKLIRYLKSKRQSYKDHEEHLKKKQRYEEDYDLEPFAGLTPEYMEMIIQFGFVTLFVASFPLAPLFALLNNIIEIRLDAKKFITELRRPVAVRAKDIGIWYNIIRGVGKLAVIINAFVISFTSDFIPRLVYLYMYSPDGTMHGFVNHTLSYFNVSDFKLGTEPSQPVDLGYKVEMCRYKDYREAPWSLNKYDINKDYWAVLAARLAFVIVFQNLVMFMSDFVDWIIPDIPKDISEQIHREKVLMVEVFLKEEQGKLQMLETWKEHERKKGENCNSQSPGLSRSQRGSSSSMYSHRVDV
# procedure.text: Two-electrode voltage clamp recording of Ca2+-activated chloride current in Xenopus Laevis eggs (ionomycin/thapsigargin treated)
# cond: calcium ion-activated chloride channel current in Xenopus Laevis eggs, activated with 5 mM Ca2+; 15 s pretreatment with chemical
Assignment: determine reported pIC50 for the given compounds.
Please keep in mind that pIC50 is minus log10 of the molar concentration; only the number is needed.

In: Returns the measured pIC50 for the input compound. Input: O=C(O)c1c2ccccc2cc2ccccc12 [9-AC, 9-anthracene carboxylic acid, reference compound]
Out: 4.03

In: Another compound to look at: O=C(O)c1ccccc1Nc1ccc(F)c(C(F)(F)F)c1
Out: 4.83

In: Another compound to look at: O=C(O)c1ccccc1Nc1ccc(F)cc1 [N-(4-Fluorophenyl)anthranilic acid]
Out: 4.20

In: Another compound to look at: O=C(O)c1ccccc1Nc1cccc([N+](=O)[O-])c1 [N-(3-Nitrophenyl)anthranilic acid]
Out: 4.49

In: Another compound to look at: O=C(O)c1cc([N+](=O)[O-])ccc1NCCCc1ccccc1 [NPPB, reference compound]
Out: 4.49

---

# tested.target: Cl− channel activated by Ca2+ (calcium ion-activated chloride channels) (Xenopus laevis)
# procedure.text: Two-electrode voltage clamp recording of Ca2+-activated chloride current in Xenopus Laevis eggs (ionomycin/thapsigargin treated)
# Format: cell-based
# cond: calcium ion-activated chloride channel current in Xenopus Laevis eggs, activated with 5 mM Ca2+; 15 s pretreatment with chemical
assay.readout: pIC50
Please keep in mind that pIC50 is minus log10 of the molar concentration; only the number is needed.

In: Returns the measured pIC50 for the input molecule. Input: O=C(O)c1ccccc1Nc1ccc(Cl)cc1
Out: 4.95

In: Another molecule to look at: O=C(O)c1ccccc1Nc1ccccc1 [N-Phenylanthranilic acid, reference compound]
Out: 4.06

In: Another molecule to look at: CC(C)(C)c1ccc(Nc2ccccc2C(=O)O)cc1
Out: 4.64

In: Another molecule to look at: O=C(O)c1cccnc1Nc1cccc(C(F)(F)F)c1 [Niflumic acid, reference compound]
Out: 4.43

In: Another molecule to look at: O=C(O)c1ccccc1Nc1ccccc1C(F)(F)F
Out: 4.53

In: Another molecule to look at: O=S(=O)(O)c1cc(N=C=S)ccc1C=Cc1ccc(N=C=S)cc1S(=O)(=O)O [DIDS, reference compound]
Out: 4.97

In: Another molecule to look at: O=C(O)c1ccccc1Nc1ccc(C(F)(F)F)cc1
Out: 5.22

In: Another molecule to look at: Cc1ccc(Nc2ccccc2C(=O)O)cc1
Out: 4.26

In: Another molecule to look at: O=C(O)c1ccccc1Nc1ccc([N+](=O)[O-])cc1
Out: 4.75

In: Another molecule to look at: O=C(O)c1ccccc1Nc1cccc(C(F)(F)F)c1 [Flufenamic acid, reference compound]
Out: 4.45

---

# tested.target: Cl− channel activated by Ca2+ (calcium ion-activated chloride channels) (Xenopus laevis)
# procedure.text: Two-electrode voltage clamp recording of Ca2+-activated chloride current in Xenopus Laevis eggs (ionomycin/thapsigargin treated)
# cond: calcium ion-activated chloride channel current in Xenopus Laevis eggs, activated with 5 mM Ca2+; 15 s pretreatment with chemical
assay.readout: pIC50
Please keep in mind that pIC50 is minus log10 of the molar concentration; only the number is needed.

In: Returns the measured pIC50 for the input compound. Input: CC(C)c1ccc(Nc2ccccc2C(=O)O)cc1
Out: 4.77

In: Another compound to look at: COc1ccc(Nc2ccccc2C(=O)O)cc1
Out: 3.99

In: Another compound to look at: Cc1cccc(Nc2ccccc2C(=O)O)c1C [Mefenamic acid, reference compound]
Out: 4.35

In: Another compound to look at: O=C(O)c1cc([N+](=O)[O-])ccc1Nc1ccc([N+](=O)[O-])cc1
Out: 4.81

// provenance: patent US20090131527A1
